target-under-test: Human IDO1 (Homo sapiens, UniProt P14902)
Sequence (P14902 whole entry): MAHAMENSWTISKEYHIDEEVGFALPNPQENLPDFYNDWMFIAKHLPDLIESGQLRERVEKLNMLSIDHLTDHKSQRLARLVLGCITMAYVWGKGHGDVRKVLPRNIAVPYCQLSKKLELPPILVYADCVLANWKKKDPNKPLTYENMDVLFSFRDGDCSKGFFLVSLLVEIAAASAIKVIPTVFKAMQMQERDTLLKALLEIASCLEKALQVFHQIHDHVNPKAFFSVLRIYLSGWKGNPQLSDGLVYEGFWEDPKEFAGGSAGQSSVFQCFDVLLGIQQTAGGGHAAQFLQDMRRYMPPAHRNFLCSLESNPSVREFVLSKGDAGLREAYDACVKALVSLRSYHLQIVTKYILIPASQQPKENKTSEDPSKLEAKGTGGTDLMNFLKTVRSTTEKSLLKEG
method-summary: IDO Kynurenine Assay with Human IDO1/HEK293 Cells
measurement-conditions: read-out: HEK human IDO-1 (IC50)
Listed here are molecules together with their documented IC50.
Express your answer in nM, writing the number without its unit.

Here are 2 molecules together with their reported answers.
O=C(Nc1ccc(C(F)(F)F)cc1F)Nc1cc(-c2ccccc2-c2nnn[nH]2)ccc1N1CCC(c2ccccc2)C1 (racemic) [Example 370] = 70
CCOc1ccc(NC(=O)Nc2cc(-c3cc(F)ccc3C(=O)O)c(F)cc2N(CC(C)C)C2C[C@H]3CC[C@@H]2C3)cc1 (stereo partly drawn) [Example 412] = 60

Here is another molecule to look at.
Noted IC50 for Cc1ccc(NC(=O)Nc2cc(-c3cc(F)ccc3C(=O)O)c(F)cc2N(CC(C)C)C2CCCCC2)nn1 [Example 522] , tested on Human IDO1 (Homo sapiens, UniProt P14902): 1220

* * *

List of IC50 values.
target-under-test: Human IDO1 (Homo sapiens, UniProt P14902)
method-summary: IDO Kynurenine Assay with Human IDO1/HEK293 Cells
measurement-conditions: read-out: HEK human IDO-1 (IC50)
Write the numeric value and append its unit.

// worked examples, IC50 included
Cc1ccc(NC(=O)Nc2cc(-c3ccccc3C(=O)O)ccc2N(CCCC(F)(F)F)C2CCCCC2)cc1 = 100 nM
Cc1ccc(C(=O)O)c(-c2ccc(N(CC(C)C)CC(C)C)c(NC(=O)Nc3ccc(F)cc3F)c2)c1 = 160 nM
CC(C)CN(c1cc(F)c(-c2cc(F)ccc2C(=O)O)cc1NC(=O)Nc1ccc2nccn2c1)C1CCCCC1 = 2560 nM

Proceeding to the next molecule to report its IC50.
The molecule listed as `C=C(C)CN(CC(F)(F)F)c1ccc(-c2cc(F)ccc2C(=O)O)cc1NC(=O)Nc1ccc(C)cc1` shows IC50 equal to 60 nM

* * *

target-under-test: IDO (Homo sapiens, UniProt P14902)
Sequence (P14902 whole entry): as above
method-summary: LLE_IDO_ABS_DR (IDO assay)
Below: a set of entries, each annotated with reported pIC50.
The scale used: pIC50 is minus the common logarithm of the concentration in molar units.

CC(C)CN(CC(C)C)c1ccc(-c2ccccc2-c2nnn[nH]2)cc1NC(=O)NCC1CCCCC1 [Example 268] = 6.08
CCC1CCCCN1c1ccc(-c2ccccc2-c2nnn[nH]2)cc1NC(=O)Nc1ccccc1F (stereo not shown) [Example 109] = 6.39
COCCN(Cc1ccc(Cl)cc1)c1ccc(-c2ccccc2C(=O)O)cc1NC(=O)Nc1ccc(C)cc1 [Example 192] = 8.11
O=C(Nc1ccc(OC(F)(F)F)cc1)Nc1cc(-c2ccccc2-c2nnn[nH]2)ccc1N1CCC(c2ccccc2)C1 (racemic) [Example 369] = 6.28
Cc1ccc(NC(=O)Nc2cc(-c3ccccc3-c3nnn[nH]3)ccc2N(CCC(F)(F)F)Cc2ccc(Cl)cc2Cl)cc1 [Example 505] = 7.40

pIC50 reading for COc1cc(NC(=O)Nc2cc(-c3ccccc3-c3nnn[nH]3)ccc2N(CC(C)C)CC(C)C)ccc1F [Example 252] : 5.91

Form field pIC50, entry CC(C)CN(CC(C)C)c1ccc(-c2ccccc2-c2nnn[nH]2)cc1NC(=O)NCC1CC1 [Example 142] : 6.02

* * *

Measured IC50, listed per entry.
target-under-test: IDO (Homo sapiens)
method-summary: LLE_IDO_ABS_DR (IDO assay)

Recorded results for 5 compounds are shown here.
COc1cc(NC(=O)Nc2cc(-c3ccccc3-c3nnn[nH]3)ccc2N(CC(C)C)CC(C)C)ccc1C#N = 4.31 µM
O=C(Nc1ccc(F)nc1)Nc1cc(-c2ccccc2-c2nnn[nH]2)ccc1N1CCCc2ccccc21 = 5.06 µM
Cc1ccc(NC(=O)Nc2cc(-c3ccccc3C(=O)C(C#N)S(C)(=O)=O)ccc2N(CC(C)C)CC(C)C)cc1 (stereo not shown) = 1.18 µM
Cc1ccc(NC(=O)Nc2cc(-c3ccccc3C(=O)O)ccc2N(CC(C)C)C2CCOCC2)cc1 = 0.06 µM
Cc1ccc(NC(=O)Nc2cc(-c3ccccc3C(=O)O)ccc2N(CC(C)C)CC2CC2)cc1 = 0.08 µM

The reported IC50 of the compound `CCN(CC(C)(C)C)c1ccc(-c2ccccc2-c2nnn[nH]2)cc1NC(=O)Nc1ccccc1F` was 0.03 µM

Short answer for `CN(c1ccc(-c2ccccc2-c2nnn[nH]2)cc1NC(=O)Nc1ccccc1Cl)C1CCCCC1` : IC50 was 0.06 µM

* * *

target-under-test: IDO (Homo sapiens)
method-summary: LLE_IDO_ABS_DR (IDO assay)
property: IC50 (nM)
Report only the number, with the unit nM understood.

CC(C)CN(c1ccc(-c2cc(F)ccc2C(=O)O)cc1NC(=O)Nc1ccccc1C(F)(F)F)C1CCCCC1 [Example 163] = 1030
Cc1ccc(NC(=O)Nc2cc(-c3ccccc3-c3nnn[nH]3)ccc2N(Cc2ccccc2)CC(F)F)cc1 [Example 22] = 30
Cc1ccc(NC(=O)Nc2cc(-c3ccccc3-c3nnn[nH]3)ccc2N(C)CC(C)C)cc1 [Example 179] = 50

Then there is this molecule:
Value of measured IC50 for the entry O=C(Nc1ccc(OC(F)(F)F)cc1)Nc1cc(-c2ccccc2-c2nnn[nH]2)ccc1N(CCC(F)(F)F)Cc1ccc(Cl)cc1Cl [Example 337] : 410

* * *

target-under-test: IDO (Homo sapiens, UniProt P14902)
method-summary: LLE_IDO_ABS_DR (IDO assay)
# reported pIC50; entries follow
Lab note: report pIC50 as minus log10 of the concentration in molar units, number only.

# example entries with known answers
C=C(C)CN(CC(F)(F)F)c1ccc(-c2cc(F)ccc2C(=O)O)cc1NC(=O)Nc1ccc(C)cc1 = 7.15
Cc1ccc(NC(=O)Nc2cc(-c3ccccc3-c3nnn[nH]3)ccc2N(CCC(F)(F)F)Cc2ccccc2Cl)cc1 = 7.70
Cc1ccc(NC(=O)Nc2cc(-c3ccccc3C(=O)O)ccc2N(C)c2ccccc2C(C)(C)C)cc1 = 5.74

Next compound, please.
The recorded pIC50 for entry `CC(C)CNC(=O)Nc1cc(-c2ccccc2-c2nnn[nH]2)ccc1N(CC(C)C)CC(C)C` equals 6.74

* * *

target-under-test: Human IDO1 (Homo sapiens, UniProt P14902)
method-summary: IDO Kynurenine Assay with Human IDO1/HEK293 Cells
measurement-conditions: read-out: HEK human IDO-1 (IC50)
pIC50: −log10 of the molar value.
So basically: pIC50 at 7 or higher? That is satisfied. Lower than 7? That is not satisfied.

Worked set:
CC(C)CN(CC(C)C)c1ccc(-c2cccc(OC(F)(F)F)c2C(=O)O)cc1NC(=O)Nc1ccc(Cl)cc1F [Example 496] = satisfied
Cc1cc(NC(=O)Nc2cc(-c3cc(F)ccc3C(=O)O)c(F)cc2N(CC(C)C)C2CCCCC2)on1 [Example 376] = satisfied
Cc1ccc(NC(=O)Nc2cc(-c3ccccc3-c3nnn[nH]3)ccc2N(CCC(F)(F)F)Cc2ccccc2Cl)cc1 [Example 19] = satisfied
CC(C)CN(c1ccc(-c2cc(F)ccc2C(=O)O)cc1NC(=O)Nc1ccc2nccnc2c1)C1CCCCC1 [Example 406] = satisfied
CC(C)CN(c1ccc(-c2ccccc2-c2nnn[nH]2)cc1NC(=O)Nc1ccc(OC(F)(F)F)cc1)C1CCC(F)(F)CC1 [Example 514] = satisfied

Request: Hi team, for Cc1ccc(NC(=O)Nc2cc(-c3ccccc3C(=O)O)ccc2N(CC(C)C)C2CCC(F)(F)CC2)cc1 [Example 512] , is the recorded pIC50 at or above 7?
Response: satisfied

* * *

target-under-test: UniProt:P14902
method-summary: Kynurenine assay in Hela cells stimulated with IFN-γ to express IDO
Assay type: cell-based
Parameters: endogenous in cells; host or cells: HeLa (ATCC CCL-2), stimulated with human recombinant IFN-gamma
measurement-conditions: 20 h, read-out: Hela Kyurenine (IC50)
property: IC50 (nM)
Express your answer in nM, writing the number without its unit.

Cc1ccc(NC(=O)Nc2cc(-c3ccccc3-c3nnn[nH]3)c(F)cc2N(C)C2CCCCC2)cc1 = 2.63
Cc1ccc(NC(=O)Nc2cc(-c3ccccc3C(=O)O)ccc2N(C)C2CCCCC2)cc1 = 6.56
CCCN(CC1CC1)c1ccc(-c2ccccc2-c2nnn[nH]2)cc1NC(=O)Nc1ccc(C)cc1 = 10

As a next step, examine the compound that follows.
Reported UniProt:P14902 IC50 for item `CN(c1ccc(-c2ccccc2C(=O)O)cc1NC(=O)Nc1ccccc1F)C1CCCCC1` was 10

* * *

target-under-test: IDO (Homo sapiens, UniProt P14902)
method-summary: Kynurenine assay in Hela cells stimulated with IFN-γ to express IDO
Type: cell-based
Set-up: endogenous in cells; host or cells: HeLa (ATCC CCL-2), stimulated with human recombinant IFN-gamma
measurement-conditions: 20 h, read-out: Hela Kyurenine (IC50)
// values below are reported IC50
Give the quantity in nM, number only.

For orientation, consider the following solved cases.
CN(c1ccc(-c2ccccc2-c2nnn[nH]2)cc1NC(=O)Nc1ccccc1F)C1CCCCC1 [Example 214] = 1.07
CCN(c1ccc(-c2ccccc2-c2nnn[nH]2)cc1NC(=O)Nc1ccc(C)cc1)C1CCCCC1 [Example 216] = 0.831
CN(c1ccc(-c2ccccc2-c2nnn[nH]2)cc1NC(=O)Nc1ccccc1C(F)(F)F)C1CCCCC1 [Example 212] = 200

Kindly consider the entry below.
Here Cc1ccc(NC(=O)Nc2cc(-c3ccccc3-c3nnn[nH]3)ccc2N(C)C2CCOCC2)cc1 [Example 50] was tested on IDO (Homo sapiens, UniProt P14902), and its IC50 came to 60

// provenance: patent US9758492B2
